target: mushroom tyrosinase; experiment: Tyrosinase activity assay (methanol extract, fractions, Compounds 1-3); format: biochemical; conditions: substrate L-DOPA; Table 5; read-out: IC50 (μM) DOPA
Assign IC50 to each entry below.
One number for each entry, in µM.

Sample records with IC50:
- SAMPLE SMILES: "CCCCC/C=C/CCC(=O)c1cc(O)c(C)c(O)c1O"
  IC50 (µM): 489
- SAMPLE SMILES: "CCCCCCCC(=O)c1cc(O)c(C)c(O)c1O"
  IC50 (µM): 616

Return reported IC50. Input compound: CCCCCC(=O)c1cc(O)c(C)c(O)c1O
291

---

biological target: mushroom tyrosinase; assay: Tyrosinase activity assay (methanol extract, fractions, Compounds 1-3); type: biochemical; details: substrate L-tyrosine; Table 5; read-out: IC50 (μM) Tyrosine
MEASURED ATTRIBUTE: IC50
Please answer using a numeric value trailed by its unit.

Past entries and their recorded results:
- COMPOUND: "CCCCCCCC(=O)c1cc(O)c(C)c(O)c1O [Compound 2]"
  ASSAY SYSTEM: "mushroom tyrosinase"
  IC50: "481 µM"
- COMPOUND: "CCCCC/C=C/CCC(=O)c1cc(O)c(C)c(O)c1O [Compound 3]"
  ASSAY SYSTEM: "mushroom tyrosinase"
  IC50: "84 µM"

Then there is this compound:
// Input: CCCCCC(=O)c1cc(O)c(C)c(O)c1O [Compound 1] . Output its IC50 only.
125 µM
